- assay.target: cDNA-expressed human hepatic CYP3A4 (Homo sapiens (Human), UniProt P08684)
- Sequence (P08684 whole entry): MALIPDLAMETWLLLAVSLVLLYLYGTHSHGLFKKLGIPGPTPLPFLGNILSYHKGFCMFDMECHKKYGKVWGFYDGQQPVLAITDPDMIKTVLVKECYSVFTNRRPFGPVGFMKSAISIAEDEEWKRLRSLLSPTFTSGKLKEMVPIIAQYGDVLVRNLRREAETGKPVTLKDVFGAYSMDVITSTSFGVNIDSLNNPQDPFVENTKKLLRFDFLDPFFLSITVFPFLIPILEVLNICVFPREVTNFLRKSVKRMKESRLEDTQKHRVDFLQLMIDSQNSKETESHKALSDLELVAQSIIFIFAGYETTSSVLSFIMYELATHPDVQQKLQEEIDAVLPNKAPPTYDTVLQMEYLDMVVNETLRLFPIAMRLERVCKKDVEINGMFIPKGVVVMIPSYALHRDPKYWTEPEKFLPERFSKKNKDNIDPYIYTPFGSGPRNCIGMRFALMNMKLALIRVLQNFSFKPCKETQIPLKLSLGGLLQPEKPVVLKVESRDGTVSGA
- experiment.summary: Measurement of CYP (IC50 of P450 CYP3A4), BFC substrate
- Format: in vitro ADME
- condition.details: 20 minutes
- Method: The compounds of the present invention had lower P450 CYP3A4 inhibitory activity (higher IC50). Lower CYP3A4 inhibitory activity means that the compounds of the present invention cause fewer side-effects from the pharmacological point of view. […] Then, a fluorescent signal was measured using a fluorometer. A BFC metabolite, 7-hydroxy-4-trifluoromethyl-coumarin, was measured using an excitation wavelength of 409 nm and an emission wavelength of 530 nm.
reported.endpoint: IC50

Record excerpt, results attached:
q: API: value(readout= IC50, system= cDNA-expressed human hepatic CYP3A4 (Homo sapiens (Human), UniProt P08684), query= C=CCN1CC(=O)N2[C@@H](Cc3ccc(O)cc3)C(=O)N(Cc3cccc4c(-c5ccc(NC(=O)c6ccc(NC)cc6)cc5)cn(C)c34)C[C@@H]2N1C(=O)NCc1ccccc1 )
a: > 25 µM

q: # value lookup — system cDNA-expressed human hepatic CYP3A4 (Homo sapiens (Human), UniProt P08684), readout IC50, item C=CCN1CC(=O)N2[C@@H](Cc3ccc(O)cc3)C(=O)N(Cc3cccc4c(C(=O)N5CC(N6CCN(C)CC6)C5)cn(C)c34)C[C@@H]2N1C(=O)NCc1ccccc1
a: > 25 µM

Now, please, on to the next molecule.
q: What is its IC50 for cDNA-expressed human hepatic CYP3A4 (Homo sapiens (Human), UniProt P08684)? Entry: C=CCN1CC(=O)N2[C@@H](Cc3ccc(O)cc3)C(=O)N(Cc3cccc4c(-c5ccc(NC(=O)Nc6ccc(OC)nc6)cc5)cn(C)c34)C[C@@H]2N1C(=O)NCc1ccccc1 [Compound B]
a: > 25 µM
